# Subject of test: 5HT2b receptors (Homo sapiens)
# Sequence (P41595 whole entry): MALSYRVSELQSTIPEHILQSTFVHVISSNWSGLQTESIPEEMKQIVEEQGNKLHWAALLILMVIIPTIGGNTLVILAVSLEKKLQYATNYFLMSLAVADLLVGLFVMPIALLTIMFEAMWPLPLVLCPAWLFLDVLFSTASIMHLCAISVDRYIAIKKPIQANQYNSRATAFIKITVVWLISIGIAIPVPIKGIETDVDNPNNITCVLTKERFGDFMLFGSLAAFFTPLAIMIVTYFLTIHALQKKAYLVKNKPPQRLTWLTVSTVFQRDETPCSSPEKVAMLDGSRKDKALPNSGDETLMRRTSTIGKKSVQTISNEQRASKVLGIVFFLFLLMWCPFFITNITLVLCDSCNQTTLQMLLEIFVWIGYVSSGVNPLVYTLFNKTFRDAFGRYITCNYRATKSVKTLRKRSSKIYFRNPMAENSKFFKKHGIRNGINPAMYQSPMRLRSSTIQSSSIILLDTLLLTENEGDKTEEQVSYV
# Protocol: Nonmuscarinic off-target functional activity: 5HT2b antagonism
Parameter measured: IC50 (nM)
One number for each entry, in nM.

Qu. Entry CCOC(=O)N1CCCC(N2CCC(c3cccnc3OC)CC2)CC1 (stereo not shown) has what IC50?
Ans. 1260

----------
# Subject of test: UniProt:P11229
# Sequence (P11229 whole entry): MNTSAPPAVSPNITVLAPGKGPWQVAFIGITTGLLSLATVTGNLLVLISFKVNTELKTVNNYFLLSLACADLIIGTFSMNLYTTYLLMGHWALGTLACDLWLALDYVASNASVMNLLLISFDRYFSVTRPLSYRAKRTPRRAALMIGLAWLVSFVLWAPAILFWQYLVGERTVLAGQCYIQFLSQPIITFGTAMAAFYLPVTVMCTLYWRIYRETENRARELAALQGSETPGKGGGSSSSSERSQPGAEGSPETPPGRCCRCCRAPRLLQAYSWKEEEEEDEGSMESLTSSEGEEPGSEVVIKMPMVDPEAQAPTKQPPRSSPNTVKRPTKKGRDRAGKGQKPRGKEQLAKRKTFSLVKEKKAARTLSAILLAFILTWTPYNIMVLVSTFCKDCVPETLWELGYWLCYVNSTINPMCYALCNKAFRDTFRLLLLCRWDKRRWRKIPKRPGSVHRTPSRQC
# Protocol: FLIPR Ca2+ functional assay, CHO K1 cells stably expressing hM1
Provide the reported pEC50 of each item.
Numbers only, as −log10 of the molar value.

| Molecule | Subject of test | pEC50 |
| --- | --- | --- |
| CCOC(=O)N1CCCC(N2CCC(c3cccnc3OC)CC2)CC1 (centres unmarked) | UniProt:P11229 | 6.51 |

Qu. Entry `Cc1cc(F)c2[nH]c(=O)n(C3CCN(C4CCOCC4)CC3)c2c1` has what pEC50?
Ans. 7.57
